- target or system: M4 muscarinic receptor (Homo sapiens, UniProt P08173)
- Construct: expressed in transfected cells; host or cells: CHO (M4-CHO)
- Sequence (P08173 1-479): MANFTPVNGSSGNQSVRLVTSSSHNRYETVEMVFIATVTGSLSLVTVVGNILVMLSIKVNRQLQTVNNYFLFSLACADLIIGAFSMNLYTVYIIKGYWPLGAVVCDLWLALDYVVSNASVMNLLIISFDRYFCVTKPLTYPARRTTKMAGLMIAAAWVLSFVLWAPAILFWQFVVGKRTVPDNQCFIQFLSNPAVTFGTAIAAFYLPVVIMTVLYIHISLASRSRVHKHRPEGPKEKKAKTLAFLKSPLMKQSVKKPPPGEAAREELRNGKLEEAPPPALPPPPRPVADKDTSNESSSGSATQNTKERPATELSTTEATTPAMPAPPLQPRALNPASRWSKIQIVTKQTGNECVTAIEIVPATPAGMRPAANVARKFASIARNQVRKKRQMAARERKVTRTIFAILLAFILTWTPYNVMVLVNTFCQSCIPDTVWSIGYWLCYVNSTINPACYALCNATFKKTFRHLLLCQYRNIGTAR
- test name: Functional mobilization of intracellular calcium (FLIPR) in M4-CHO cells
- Assay type: cell-based
- experimental context: M4 receptor, calcium mobilization; read-out: M4 Efficacy

>  <molecule>
CCOC(=O)N1C2CCC1CC(N1CCC3(CC1)COc1ccc(F)cc13)C2 (stereo not shown)

>  <Emax>
> 85%

$$$$
>  <molecule>
CCC1CCC(N2CCC3(CC2)CN(C(C)=O)c2ccc(F)cc23)CC1 (stereo not shown)

>  <Emax>
65 to 85%

$$$$
>  <molecule>
CCOC(=O)N1CCC(N2CCC3(CC2)CN(C(=O)C2CCCC2)c2ccc(F)cc23)CC1

>  <Emax>
65 to 85%

$$$$
>  <molecule>
CCOC(=O)N1CCC(N2CCC3(CC2)CN(C(=O)CC)c2ccc(F)cc23)CC1

>  <Emax>
< 65%

$$$$
>  <molecule>
CCOC(=O)N1CCC(CN2CCC3(CC2)COc2ccc(F)cc23)CC1

>  <Emax>
< 65%

$$$$
>  <molecule>
COCCOC(=O)N1CC2(CCN(C3CC4CCC(C3)N4C(=O)OC3CCC3)CC2)c2cc(F)ccc21 (stereo not shown)

>  <Emax>
< 65%

$$$$
>  <molecule>
Clc1ccc2c(c1)C1(CCN(C3CCC4CCC3C4)CC1)CN2 (stereo not shown)

>  <Emax>
> 85%

$$$$
>  <molecule>
CC(=O)N[C@H]1CC2(CCN([C@H]3C[C@@H]4CC[C@@H]3C4)CC2)c2ccccc21

>  <Emax>
> 85%

$$$$
>  <molecule>
CC(=O)N[C@H]1CC2(CCN(C3CC4CCC(C4)C3)CC2)c2ccccc21 (stereo partly shown)

>  <Emax>
< 65%

$$$$
>  <molecule>
CCC1CCC(N2CCC3(CC2)C[C@H](NC(C)=O)c2ccccc23)CC1 (stereo partly shown)

>  <Emax>
< 65%

$$$$

###

- target or system: M4 muscarinic receptor (Homo sapiens, UniProt P08173)
- Construct: expressed in transfected cells; host or cells: CHO (M4-CHO)
- Sequence (P08173 1-479): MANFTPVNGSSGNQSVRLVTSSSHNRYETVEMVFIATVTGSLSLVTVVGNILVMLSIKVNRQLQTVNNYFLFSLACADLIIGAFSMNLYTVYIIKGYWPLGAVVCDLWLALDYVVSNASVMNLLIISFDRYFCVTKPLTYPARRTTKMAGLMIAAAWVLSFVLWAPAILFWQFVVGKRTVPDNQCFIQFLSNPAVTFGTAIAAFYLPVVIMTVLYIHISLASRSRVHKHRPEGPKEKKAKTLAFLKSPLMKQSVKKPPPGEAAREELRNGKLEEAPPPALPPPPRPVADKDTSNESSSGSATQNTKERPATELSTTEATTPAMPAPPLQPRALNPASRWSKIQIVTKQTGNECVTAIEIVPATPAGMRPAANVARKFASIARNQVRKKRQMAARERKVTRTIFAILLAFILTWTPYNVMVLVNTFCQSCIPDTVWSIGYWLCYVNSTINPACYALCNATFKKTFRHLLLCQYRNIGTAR
- test name: Functional mobilization of intracellular calcium (FLIPR) in M4-CHO cells
- Type: cell-based
- experimental context: Table 4; 100% efficacy is the maximum response obtained with the Carbachol control
value type: Emax

>  <compound>
CN(C)C(=O)N1CC2(CCN(C3CCN(C(=O)CC4CCCC4=O)CC3)CC2)c2cc(F)ccc21 (stereo not drawn)

>  <readout value>
< 25%

$$$$
>  <compound>
CN(C)C(=O)N1CC2(CCN(C3CCN(C(=O)c4cccc(F)c4)CC3)CC2)c2cc(F)ccc21

>  <readout value>
< 25%

$$$$
>  <compound>
CC(=O)N[C@H]1CC2(CCN(C3CCN(C)CC3)CC2)c2ccccc21

>  <readout value>
< 25%

$$$$
>  <compound>
CC(=O)N1CC2(CCN(C3CC4CCC(C3)N4C(=O)O[C@@H]3CCOC3)CC2)c2ccccc21 (stereo partly drawn)

>  <readout value>
25 to 100%

$$$$
>  <compound>
CC(=O)N1CC2(CCN(CC3CCN(C(=O)OC4CCC4)CC3)CC2)c2cc(C)ccc21

>  <readout value>
< 25%

$$$$
>  <compound>
Cc1ccc2c(c1)C1(CCN(C3CC4CCC3C4)CC1)CN2C(=O)c1ccncc1 (stereo not drawn)

>  <readout value>
< 25%

$$$$
>  <compound>
C#Cc1ccc2c(c1)C1(CCN(C3CCN(C(=O)OCC)CC3)CC1)CN2C(C)=O

>  <readout value>
25 to 100%

$$$$
>  <compound>
CCCN1CCC(N2CCC3(CC2)CN(C(C)=O)c2ccc(F)cc23)CC1

>  <readout value>
< 25%

$$$$
>  <compound>
CCOC(=O)N1CC[C@H](CN2CCC3(CC2)CN(C(C)=O)c2ccccc23)C1

>  <readout value>
25 to 100%

$$$$
>  <compound>
CN(C)C(=O)N1CC2(CCN(C3CCN(C(=O)c4cccs4)CC3)CC2)c2cc(F)ccc21

>  <readout value>
< 25%

$$$$
>  <compound>
COc1ccc(CC(=O)N2CCC(N3CCC4(CC3)CN(C(=O)N(C)C)c3ccc(F)cc34)CC2)cc1

>  <readout value>
< 25%

$$$$
>  <compound>
CCOC(=O)N1CCC(N2CCC3(CC2)CN(C(=O)[C@H](O)CC)c2ccc(F)cc23)CC1

>  <readout value>
25 to 100%

$$$$
